TARGET ENTITY: Ubiquitin-activating enzyme e1, putative (Leishmania donovani (strain BPK282A1)) (UniProt E9BSI1)
Sequence (E9BSI1 as listed by the source): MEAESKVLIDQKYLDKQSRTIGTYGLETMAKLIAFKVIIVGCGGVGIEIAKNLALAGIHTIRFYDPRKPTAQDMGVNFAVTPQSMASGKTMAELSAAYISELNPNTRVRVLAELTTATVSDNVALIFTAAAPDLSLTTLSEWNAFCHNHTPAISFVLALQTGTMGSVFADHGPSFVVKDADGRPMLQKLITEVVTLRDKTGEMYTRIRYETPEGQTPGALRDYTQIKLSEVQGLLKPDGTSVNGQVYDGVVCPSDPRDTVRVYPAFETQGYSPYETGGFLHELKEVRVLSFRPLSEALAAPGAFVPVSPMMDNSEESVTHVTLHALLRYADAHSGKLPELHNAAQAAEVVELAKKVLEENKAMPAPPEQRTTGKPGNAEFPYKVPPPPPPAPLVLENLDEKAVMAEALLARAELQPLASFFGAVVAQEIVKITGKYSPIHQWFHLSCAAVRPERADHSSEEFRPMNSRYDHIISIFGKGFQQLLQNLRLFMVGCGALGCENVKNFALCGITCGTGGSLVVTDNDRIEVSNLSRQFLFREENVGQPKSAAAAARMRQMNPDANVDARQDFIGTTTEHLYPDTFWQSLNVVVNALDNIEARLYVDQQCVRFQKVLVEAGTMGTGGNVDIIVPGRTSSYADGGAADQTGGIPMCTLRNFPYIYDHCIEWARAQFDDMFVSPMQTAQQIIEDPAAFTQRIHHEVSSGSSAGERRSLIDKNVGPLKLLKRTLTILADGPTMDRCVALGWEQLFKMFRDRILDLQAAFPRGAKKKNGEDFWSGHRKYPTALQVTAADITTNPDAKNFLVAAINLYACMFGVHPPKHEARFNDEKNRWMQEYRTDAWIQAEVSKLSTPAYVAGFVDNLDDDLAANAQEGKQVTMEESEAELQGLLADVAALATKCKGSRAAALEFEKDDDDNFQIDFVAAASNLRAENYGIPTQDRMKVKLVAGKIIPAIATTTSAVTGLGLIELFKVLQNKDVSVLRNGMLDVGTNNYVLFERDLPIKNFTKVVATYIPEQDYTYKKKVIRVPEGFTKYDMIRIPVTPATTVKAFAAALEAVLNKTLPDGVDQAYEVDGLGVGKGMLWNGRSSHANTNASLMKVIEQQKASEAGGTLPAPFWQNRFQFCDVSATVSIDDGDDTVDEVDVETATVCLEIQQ
ASSAY NOTES: Leishmania donovani Ubiquitin Activating Enzyme (LdE1)
Format: functional
Parameters: scale not given: direction of the effect not stated beside the values
COND: 30 µM
Potency and affinity values are given separately.
READOUT: Percent Effect (%)
Field format: number, assumed %, no unit text.

q: Recorded Percent Effect for Cc1cc(CN(C)C(=O)C2CCCN(C(=O)c3cccs3)C2)no1 (stereo unspecified) , please?
a: 10.4

q: Recorded Percent Effect for Cc1cc(C2CCCN2Cc2cc(=O)n(C)c(=O)n2C)on1 (stereo unspecified) , please?
a: 2.67

q: Recorded Percent Effect for Cc1n[nH]c(C)c1C1CCCN1C(=O)NCCSC(C)(C)C (stereo unspecified) , please?
a: 0

q: Recorded Percent Effect for CN(CC(=O)N1CCCC1Cn1cccn1)c1cnccn1 (stereo unspecified) , please?
a: 0

q: Recorded Percent Effect for CNS(=O)(=O)c1ccc(C(=O)N2CCCC2Cc2ccccc2)o1 (stereo unspecified) , please?
a: -42.1

q: Recorded Percent Effect for COc1ccc(CNCc2ccnc(N3CCOCC3)c2)cc1OC , please?
a: 33.3

q: Recorded Percent Effect for CC(C(=O)N1CCCN(c2ccc(C#N)cc2)CC1)n1ccnc1 (stereo unspecified) , please?
a: 15.8

q: Recorded Percent Effect for CC(C)(C)C(=O)N1C[C@H](c2ccsc2)[C@H]2CN(Cc3cccs3)CC[C@H]21 , please?
a: 17.3

q: Recorded Percent Effect for Cc1nc2c(c(C)c1CC(=O)Nc1cccc(C#N)c1)c(=O)[nH]n2C , please?
a: 7.79

q: Recorded Percent Effect for O=C(NCc1ccco1)[C@@]12CCO[C@@H]1CCN(CCN1CCCC1)C2 , please?
a: 16

q: Recorded Percent Effect for Cc1cnn(C2CCCN(C(=O)c3cnc4ccccc4n3)C2)c1 (stereo unspecified) , please?
a: 5.41

----------
System: Trypanosoma cruzi
ASSAY NOTES: Trypanosoma cruzi phosphomannomutase and mannose-1-phosphate guanylyltransferase assay
Assay type: functional
Design: scale not given: direction of the effect not stated beside the values
COND: 10 µM
READOUT: Percent Effect (%)
Field format: number, assumed %, no unit text.

q: Recorded Percent Effect for O=C(C[C@@H]1COC[C@H]2CN(Cc3ccc(F)cc3)C[C@@H]12)N1CCOCC1 , please?
a: -3.73

q: Recorded Percent Effect for Cc1noc(C(C)C)c1C(=O)NCCCOC(C)C , please?
a: 0.373

q: Recorded Percent Effect for CC(NCC1=Cc2cc(Cl)ccc2OC1)c1nnc2n1CCCC2 (stereo unspecified) , please?
a: -0.195

q: Recorded Percent Effect for CC(C)c1ncc(CN2CCCC(CO)C2)cn1 (stereo unspecified) , please?
a: -6.32

q: Recorded Percent Effect for C=Cc1ccc(C(=O)N2CCCC(Nc3ccc(F)cc3)C2)cc1 (stereo unspecified) , please?
a: 7.72

q: Recorded Percent Effect for Cn1cc(CN2CCOCC3(C2)CN(c2ccccc2)C(=O)CO3)cn1 (stereo unspecified) , please?
a: -1.85

q: Recorded Percent Effect for Cc1oc(C)c(C(=O)NCc2ccccc2S(=O)(=O)N(C)C)c1C , please?
a: -3.01

q: Recorded Percent Effect for Cc1nn(C)c(C)c1C1COCCN1C(=O)Cc1cccc(F)c1 (stereo unspecified) , please?
a: -3.13

q: Recorded Percent Effect for CCN1C[C@@H]2[C@@H](OC)CCN(S(=O)(=O)c3ccccc3F)[C@@H]2C1 , please?
a: -2.56

q: Recorded Percent Effect for CC(C)c1ncc2c(n1)CN(Cc1nc(-c3ccoc3)no1)CC2 , please?
a: 0.0929

q: Recorded Percent Effect for Cc1cccc(OCCC(=O)N(C)CCNS(C)(=O)=O)c1C , please?
a: -4.58

This collection of values is drawn from ChEMBL document CHEMBL3988442.
